The origin of these recorded values is paper PMC5321434.

EC50 at 72 h by entry:
- testDescription: WST-8 cytotoxicity assay
- Assay type: cell-based, mouse
- conditionsUsed: mouse, CMT-93 rectal epithelial cells; resynthesised compound, WST-8 cytotoxicity; read-out: ResynCytotoxityWST-8(EC50uM)
measurementKind: EC50 at 72 h

[[record]]
molecularstring = "Cc1ccc(CN2C(=O)COCc3cc(-c4ccncc4)ccc32)cc1"
endpointvalue = "> 100 µM"

[[record]]
molecularstring = "Cc1ccc(CN2C(=O)COCc3cc(Br)ccc32)cc1"
endpointvalue = "63 µM"

[[record]]
molecularstring = "O=C1COCc2cc(-c3cccnc3)ccc2N1CC1CCCCC1"
endpointvalue = "> 100 µM"

[[record]]
molecularstring = "Cc1ccc(CN2C(=O)COCc3cc(-c4cccnc4)ccc32)cc1"
endpointvalue = "> 100 µM"

[[record]]
molecularstring = "O=C1COCc2cc(-c3cccnc3)ccc2N1Cc1ccc(C(F)(F)F)cc1"
endpointvalue = "> 100 µM"

